Hey, just so you know, these numbers are from patent US20100183625A1.

assay-system: T1, pKal (Homo sapiens, UniProt P03952)
T1 construct: two disulfide linked polypeptides; a heavy chain of approximately 52 kDa and a catalytic domain of approximately 34 kDa; host or cells: human plasma
T1 sequence (P03952 391-638 limits assumed): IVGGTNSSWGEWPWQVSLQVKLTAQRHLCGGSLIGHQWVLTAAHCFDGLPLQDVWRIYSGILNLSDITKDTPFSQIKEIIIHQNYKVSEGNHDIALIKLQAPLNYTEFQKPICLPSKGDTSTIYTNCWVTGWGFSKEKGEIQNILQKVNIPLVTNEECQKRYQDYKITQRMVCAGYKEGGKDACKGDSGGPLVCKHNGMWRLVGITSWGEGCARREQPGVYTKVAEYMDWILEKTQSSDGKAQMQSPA
T1 sequence (P03952 20-390 partner limits assumed): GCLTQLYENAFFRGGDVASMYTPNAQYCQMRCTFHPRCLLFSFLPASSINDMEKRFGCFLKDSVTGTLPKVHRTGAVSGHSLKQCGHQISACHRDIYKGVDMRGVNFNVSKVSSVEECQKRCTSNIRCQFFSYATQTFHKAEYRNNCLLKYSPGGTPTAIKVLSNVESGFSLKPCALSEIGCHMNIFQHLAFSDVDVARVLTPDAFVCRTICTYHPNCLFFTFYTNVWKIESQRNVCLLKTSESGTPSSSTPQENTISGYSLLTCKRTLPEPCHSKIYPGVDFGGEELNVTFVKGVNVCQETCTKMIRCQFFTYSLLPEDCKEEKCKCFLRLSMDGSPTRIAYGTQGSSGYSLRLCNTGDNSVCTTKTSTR
assay-method-text: Fab fragments (small scale) tested for inhibition against human pKal in an in vitro protease cleavage assay
Type: biochemical
conditions-used: Table 9
readout: Inhibit as a Fab?

molecule: X66-G05: single point mutation of M142-H08 (P1); HV-CDR3 GGLLLWFMELKSNYFDY (antibody, V domains shown) VL: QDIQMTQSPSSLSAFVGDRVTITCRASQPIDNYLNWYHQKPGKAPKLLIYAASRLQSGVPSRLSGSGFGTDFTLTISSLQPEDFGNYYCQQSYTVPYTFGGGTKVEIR VH: EVQLLESGGGLVQPGGSLRLSCAASGFTFSAYSMIWVRQAPGKGLEWVSYIRPSGGRTTYADSVKGRFTISRDNSKNTLYLQMNSLRAEDTAVYYCARGGLLLWFMELKSNYFDYWGQGTLVTVSSASTKGPSVFPLAPSSKS
endpoint-value: No
--
molecule: X67-H01: single point mutation of M142-H08 (P2); HV-CDR3 GGLLLWWRELKSNYFDY (antibody, V domains shown) VL: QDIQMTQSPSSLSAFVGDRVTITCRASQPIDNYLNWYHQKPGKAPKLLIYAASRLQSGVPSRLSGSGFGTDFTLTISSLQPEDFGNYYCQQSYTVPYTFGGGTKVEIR VH: EVQLLESGGGLVQPGGSLRLSCAASGFTFSAYSMIWVRQAPGKGLEWVSYIRPSGGRTTYADSVKGRFTISRDNSKNTLYLQMNSLRAEDTAVYYCARGGLLLWWRELKSNYFDYWGQGTLVTVSSASTKGPSVFPLAPSSKS
endpoint-value: Yes
--
molecule: X66-F01: single point mutation of M142-H08 (P1); HV-CDR3 GGLLLWFSELKSNYFDY (antibody, V domains shown) VL: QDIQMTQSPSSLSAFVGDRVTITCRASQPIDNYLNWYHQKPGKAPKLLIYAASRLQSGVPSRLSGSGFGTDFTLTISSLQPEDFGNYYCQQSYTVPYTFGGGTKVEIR VH: EVQLLESGGGLVQPGGSLRLSCAASGFTFSAYSMIWVRQAPGKGLEWVSYIRPSGGRTTYADSVKGRFTISRDNSKNTLYLQMNSLRAEDTAVYYCARGGLLLWFSELKSNYFDYWGQGTLVTVSSASTKGPSVFPLAPSSKS
endpoint-value: No
--
molecule: X69-H10: single point mutation of M142-H08 (P1′); HV-CDR3 GGLLLWFRYLKSNYFDY (antibody, V domains shown) VL: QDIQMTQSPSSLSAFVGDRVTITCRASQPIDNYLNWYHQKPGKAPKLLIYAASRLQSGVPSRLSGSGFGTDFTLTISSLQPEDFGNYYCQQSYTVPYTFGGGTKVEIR VH: EVQLLESGGGLVQPGGSLRLSCAASGFTFSAYSMIWVRQAPGKGLEWVSYIRPSGGRTTYADSVKGRFTISRDNSKNTLYLQMNSLRAEDTAVYYCARGGLLLWFRYLKSNYFDYWGQGTLVTVSSASTKGPSVFPLAPSSKS
endpoint-value: No
--
molecule: X67-G05: single point mutation of M142-H08 (P2); HV-CDR3 GGLLLWRRELKSNYFDY (antibody, V domains shown) VL: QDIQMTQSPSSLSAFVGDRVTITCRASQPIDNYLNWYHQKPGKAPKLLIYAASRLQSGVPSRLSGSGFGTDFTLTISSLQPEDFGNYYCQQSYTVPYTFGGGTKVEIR VH: EVQLLESGGGLVQPGGSLRLSCAASGFTFSAYSMIWVRQAPGKGLEWVSYIRPSGGRTTYADSVKGRFTISRDNSKNTLYLQMNSLRAEDTAVYYCARGGLLLWRRELKSNYFDYWGQGTLVTVSSASTKGPSVFPLAPSSKS
endpoint-value: Yes
--
molecule: X68-E01: single point mutation of M142-H08 (P3); HV-CDR3 GGLLLLFRELKSNYFDY (antibody, V domains shown) VL: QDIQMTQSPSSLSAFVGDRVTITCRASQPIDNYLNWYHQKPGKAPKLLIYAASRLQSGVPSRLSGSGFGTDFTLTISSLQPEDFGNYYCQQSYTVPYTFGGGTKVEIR VH: EVQLLESGGGLVQPGGSLRLSCAASGFTFSAYSMIWVRQAPGKGLEWVSYIRPSGGRTTYADSVKGRFTISRDNSKNTLYLQMNSLRAEDTAVYYCARGGLLLLFRELKSNYFDYWGQGTLVTVSSASTKGPSVFPLAPSSKS
endpoint-value: Yes
--
molecule: X69-F05: single point mutation of M142-H08 (P1′); HV-CDR3 GGLLLWFRLLKSNYFDY (antibody, V domains shown) VL: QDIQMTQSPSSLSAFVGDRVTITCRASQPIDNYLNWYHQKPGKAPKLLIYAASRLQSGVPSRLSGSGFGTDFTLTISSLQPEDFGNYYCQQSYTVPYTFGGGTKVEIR VH: EVQLLESGGGLVQPGGSLRLSCAASGFTFSAYSMIWVRQAPGKGLEWVSYIRPSGGRTTYADSVKGRFTISRDNSKNTLYLQMNSLRAEDTAVYYCARGGLLLWFRLLKSNYFDYWGQGTLVTVSSASTKGPSVFPLAPSSKS
endpoint-value: Yes
--
molecule: X68-F05: single point mutation of M142-H08 (P3); HV-CDR3 GGLLLMFRELKSNYFDY (antibody, V domains shown) VL: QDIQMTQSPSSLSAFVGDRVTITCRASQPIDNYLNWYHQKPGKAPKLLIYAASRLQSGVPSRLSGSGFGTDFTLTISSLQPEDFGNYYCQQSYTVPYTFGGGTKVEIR VH: EVQLLESGGGLVQPGGSLRLSCAASGFTFSAYSMIWVRQAPGKGLEWVSYIRPSGGRTTYADSVKGRFTISRDNSKNTLYLQMNSLRAEDTAVYYCARGGLLLMFRELKSNYFDYWGQGTLVTVSSASTKGPSVFPLAPSSKS
endpoint-value: No
